# system-under-test: Protein cereblon/Bromodomain-containing protein 4/DNA damage-binding protein 1 (Homo sapiens) (UniProt O60885+Q96SW2+Q16531)
# protocol-details: Binding affinity to biotinylated CRBN/DDB1/N-terminal GST-tagged BRD4-BD1 (unknown origin) assessed as ternary complex formation (KTF) by HTRF assay
# Format: protein assay
As shown below, each of these compounds has a reported K value.
observation-type: K

compound	observation-type	endpoint-result
Cc1sc2c(c1C)C(c1ccc(Cl)cc1)=N[C@@H](CC(=O)CCCCNC(=O)COc1cccc3c1C(=O)N(C1CCC(=O)NC1=O)C3=O)c1nnc(C)n1-2 (stereo not given in full)	K	6.7 nM
Cc1sc2c(c1C)C(c1ccc(Cl)cc1)=N[C@@H](CCNCCCCNC(=O)COc1cccc3c1C(=O)N(C1CCC(=O)NC1=O)C3=O)c1nnc(C)n1-2 (stereo not given in full)	K	108 nM
Cc1sc2c(c1C)C(c1ccc(Cl)cc1)=N[C@@H](CC(=O)NCCCCNC(=O)COc1cccc3c1C(=O)N(C1CCC(=O)NC1=O)C3=O)c1nnc(C)n1-2 (stereo not given in full)	K	9.4 nM
Cc1sc2c(c1C)C(c1ccc(Cl)cc1)=N[C@@H](CCCCCNC(=O)COc1cccc3c1C(=O)N(C1CCC(=O)NC1=O)C3=O)c1nnc(C)n1-2 (stereo not given in full)	K	29.2 nM
Cc1sc2c(c1C)C(c1ccc(Cl)cc1)=N[C@@H](CC(=O)OCCCCNC(=O)COc1cccc3c1C(=O)N(C1CCC(=O)NC1=O)C3=O)c1nnc(C)n1-2 (stereo not given in full)	K	5 nM
